Entry source: PubChem BioAssay AID463173

system: DeltatarO mutant; experiment: S. aureus survival, RN4220 and DeltatarO strains – OD600, teichoic acid synthesis inhibitors, primary screen (AID 463173); settings: S. aureus RN4220 wild type/DeltatarO growth, OD600, 18 h, active compounds read low, screened at 18.75 µg/mL (by protocol)
The campaign covered roughly 52,000 compounds. About 4,300 (8.3%) were called active. The sample holds actives, similar compounds and a random draw of the others, so the mix is not that of the screen.
assay-endpoint: survival

[[record]]
smiles_data = "O=C(CCSCc1cccc(Cl)c1)NCc1ccc(F)cc1Cl"
assay_endpoint = "survival"
observed_measurement = "102% (inactive)"

[[record]]
smiles_data = "Cc1ccccc1CNC(=O)CCSCc1cnn(-c2ccccc2)c1-n1cccc1"
assay_endpoint = "survival"
observed_measurement = "64% (inactive)"

[[record]]
smiles_data = "COc1ccc(OC)c(NS(=O)(=O)c2ccc(-c3cc(C)no3)s2)c1"
assay_endpoint = "survival"
observed_measurement = "88% (inactive)"

[[record]]
smiles_data = "O=C(CCSCc1ccccc1Cl)NCc1ccc(F)cc1Cl"
assay_endpoint = "survival"
observed_measurement = "8% (active)"

[[record]]
smiles_data = "O=C(CCSCc1ccc(Cl)cc1)NCc1ccc(F)cc1Cl"
assay_endpoint = "survival"
observed_measurement = "88% (inactive)"

[[record]]
smiles_data = "O=C(NCc1ccc(F)cc1Cl)c1ccc(CSCc2ccccc2Cl)o1"
assay_endpoint = "survival"
observed_measurement = "54% (inactive)"


###

tested on: DeltatarO mutant; test: S. aureus survival, RN4220 and DeltatarO strains – OD600, teichoic acid synthesis inhibitors, primary screen (AID 463173); settings: S. aureus RN4220 wild type/DeltatarO growth, OD600, 18 h, active compounds read low, screened at 18.75 µg/mL (by protocol)
Out of some 52,000 compounds screened, about 4,300 (8.3%) were called active. The sample as a whole holds a higher share of actives than the screen did.
As shown below, each of these compounds has a reported survival value.
assay-endpoint: survival (%)

[[record]]
smiles_data = "Cc1cc2ncn(CCCCOc3ccccc3)c2cc1C"
system_name = "DeltatarO mutant"
observed_measurement = -4

[[record]]
smiles_data = "Cc1cccc(-n2c(=O)c3c4c(sc3n3cnnc23)CCCC4)c1"
system_name = "DeltatarO mutant"
observed_measurement = 72

[[record]]
smiles_data = "COc1ccc(OCCn2cnc3ccccc32)cc1"
system_name = "DeltatarO mutant"
observed_measurement = 85

[[record]]
smiles_data = "CCOc1ccc(CNC(=O)c2ccc(NC(=O)c3nsc4ccccc34)cc2)cc1"
system_name = "DeltatarO mutant"
observed_measurement = 79

[[record]]
smiles_data = "CCCNC(=O)CN1C(=O)COc2ccc(S(=O)(=O)N3CCCC3)cc21"
system_name = "DeltatarO mutant"
observed_measurement = 86

[[record]]
smiles_data = "CCN(CC)CCSc1nc2ccc(OC)cc2[nH]1"
system_name = "DeltatarO mutant"
observed_measurement = 70

[[record]]
smiles_data = "Cc1c(Cl)cccc1Nc1nc2ccc(C(=O)c3ccccc3)cc2n2cnnc12"
system_name = "DeltatarO mutant"
observed_measurement = 77

[[record]]
smiles_data = "Cc1ccc(C)c2nc(SCC(=O)OC(C)C)c(C#N)cc12"
system_name = "DeltatarO mutant"
observed_measurement = 92

[[record]]
smiles_data = "COc1ccc2nc(-c3ccc(N)cc3)[nH]c2c1"
system_name = "DeltatarO mutant"
observed_measurement = 58

[[record]]
smiles_data = "CCc1nnc(NC(=O)C(=O)c2cc(C)n(-c3ccccc3)c2C)s1"
system_name = "DeltatarO mutant"
observed_measurement = 77

[[record]]
smiles_data = "c1ccc2c(c1)ncn2CCn1cnc2ccccc21"
system_name = "DeltatarO mutant"
observed_measurement = 100

[[record]]
smiles_data = "Cc1cc2ncn(CCC(=O)Nc3ccccc3F)c2cc1C"
system_name = "DeltatarO mutant"
observed_measurement = 103


###

system: DeltatarO mutant; assay: S. aureus survival, RN4220 and DeltatarO strains – OD600, teichoic acid synthesis inhibitors, primary screen (AID 463173); settings: S. aureus RN4220 wild type/DeltatarO growth, OD600, 18 h, active compounds read low, screened at 18.75 µg/mL (by protocol)
Screen size: about 52,000 compounds; about 4,300 (8.3%) were called active. Only a selection was taken, and actives are over-represented in it overall.
As shown below, each of these molecules has a reported survival value.
assay-endpoint: survival (%)

[[record]]
molecule = "CC(C)(C)C1CCc2c(sc(NC(=O)c3ccco3)c2C(=O)Nc2ccccc2Cl)C1 (stereo unspecified)"
assay_endpoint = "survival"
result_units = "%"
observed_measurement = 135

[[record]]
molecule = "Cc1ccc(NC(=O)Cn2nc(-c3ccncc3)ccc2=O)cc1Cl"
assay_endpoint = "survival"
result_units = "%"
observed_measurement = 120

[[record]]
molecule = "COc1ccc(CNC(=O)c2ccc3nc(-c4ccc(F)cc4)c(-c4ccc(F)cc4)nc3c2)cc1"
assay_endpoint = "survival"
result_units = "%"
observed_measurement = 78

[[record]]
molecule = "Cc1ccn2c(NC(=O)c3cccc(Cl)c3)c(-c3ccccc3)nc2c1"
assay_endpoint = "survival"
result_units = "%"
observed_measurement = 65

[[record]]
molecule = "Cc1ccccc1CNc1nc(N(C)C)nc2c1cnn2C"
assay_endpoint = "survival"
result_units = "%"
observed_measurement = 72

[[record]]
molecule = "CC1CCN(C(=O)c2c(NC(=O)c3ccccc3F)sc3c2CCC(C(C)(C)C)C3)CC1 (stereo unspecified)"
assay_endpoint = "survival"
result_units = "%"
observed_measurement = -4

[[record]]
molecule = "NC(=O)c1cc(Cl)nc2ccccc12"
assay_endpoint = "survival"
result_units = "%"
observed_measurement = 81

[[record]]
molecule = "CCOc1cc(C2NC(=O)c3c(sc4c3CCN(C)C4)N2)ccc1OC(=O)c1ccc(F)cc1 (stereo unspecified)"
assay_endpoint = "survival"
result_units = "%"
observed_measurement = 56

[[record]]
molecule = "O=c1oc2cc(O)ccc2cc1-c1nnc(Nc2ccccc2F)s1"
assay_endpoint = "survival"
result_units = "%"
observed_measurement = 59

[[record]]
molecule = "COc1ccc(-c2nc3cc(C)ccn3c2NC(=O)c2ccc(F)cc2)cc1"
assay_endpoint = "survival"
result_units = "%"
observed_measurement = 37

[[record]]
molecule = "Cc1cccc2sc(N(CCN(C)C)C(=O)c3ccc4c(c3)OCCO4)nc12"
assay_endpoint = "survival"
result_units = "%"
observed_measurement = 119

[[record]]
molecule = "Cc1ccccc1C(=O)Nc1sc2c(c1C(=O)N1CCCCC1)CCC(C)C2 (stereo unspecified)"
assay_endpoint = "survival"
result_units = "%"
observed_measurement = 49

[[record]]
molecule = "NC(=O)c1ccccc1NS(=O)(=O)c1ccccc1"
assay_endpoint = "survival"
result_units = "%"
observed_measurement = 97

[[record]]
molecule = "COc1ccc(-c2nc3cc(C)ccn3c2NC(=O)c2cccc(F)c2)cc1"
assay_endpoint = "survival"
result_units = "%"
observed_measurement = 53

[[record]]
molecule = "COc1ccc(N(C(=O)Cn2nnc3ccccc32)C(C(=O)NCC2CCCO2)c2sccc2C)cc1 (stereo unspecified)"
assay_endpoint = "survival"
result_units = "%"
observed_measurement = 94

[[record]]
molecule = "CCOc1ccccc1NC(=O)c1c(NC(=O)c2ccccc2C)sc2c1CCC(C)C2 (stereo unspecified)"
assay_endpoint = "survival"
result_units = "%"
observed_measurement = 65

[[record]]
molecule = "NC(=O)c1ccc(-c2ccccc2)cc1C(N)=O"
assay_endpoint = "survival"
result_units = "%"
observed_measurement = 66

[[record]]
molecule = "COC(=O)c1ccccc1NC(=O)c1c(NC(=O)c2ccco2)sc2c1CCC(C(C)(C)C)C2 (stereo unspecified)"
assay_endpoint = "survival"
result_units = "%"
observed_measurement = 137

[[record]]
molecule = "CC(C)(C)C1CCc2c(sc(NC(=O)c3ccccc3F)c2C(=O)N2CCCCC2)C1 (stereo unspecified)"
assay_endpoint = "survival"
result_units = "%"
observed_measurement = -5

[[record]]
molecule = "CC1CCN(C(=O)c2c(NC(=O)c3ccccc3Cl)sc3c2CCC(C(C)(C)C)C3)CC1 (stereo unspecified)"
assay_endpoint = "survival"
result_units = "%"
observed_measurement = 10

[[record]]
molecule = "Cc1ccccc1NC(=O)c1c(NC(=O)c2ccccc2F)sc2c1CCC(C)C2 (stereo unspecified)"
assay_endpoint = "survival"
result_units = "%"
observed_measurement = 63


###

As shown below, each of these molecules has a reported survival value.
system: DeltatarO mutant; test: S. aureus survival, RN4220 and DeltatarO strains – OD600, teichoic acid synthesis inhibitors, primary screen (AID 463173); details: S. aureus RN4220 wild type/DeltatarO growth, OD600, 18 h, active compounds read low, screened at 18.75 µg/mL (by protocol)
About 4,300 (8.3%) of roughly 52,000 compounds were called active. What follows is part of a selection rich in actives, with near analogues and random picks from the rest.
assay-endpoint: survival (%)

[[record]]
molecule = "CCN(CC)c1ccc(NC(=O)C(Cc2ccccc2)NS(=O)(=O)c2ccc(Br)s2)c(C)c1 (stereo unspecified)"
observed_measurement = 117

[[record]]
molecule = "COC(=O)c1c(NC(=O)c2ccc(OC)cc2OC)sc2c1CCCCC2"
observed_measurement = 47

[[record]]
molecule = "Cc1ccc(Cl)cc1N1CCN(C(=O)c2ccc3c(c2)N(Cc2ccc(F)cc2)CCS3)CC1"
observed_measurement = 73

[[record]]
molecule = "CCOC(=O)c1c(NC(=O)C(C)Oc2ccc(Cl)c(C)c2)sc2c1CCCC2 (stereo unspecified)"
observed_measurement = 42

[[record]]
molecule = "Cc1noc2ncnc(N3CCCC(C(=O)NCCC(C)C)C3)c12 (stereo unspecified)"
observed_measurement = 88

[[record]]
molecule = "COc1cc(C(=O)NCc2ccc3c(c2)CCN3C(=O)c2ccncc2)cc(OC)c1OC"
observed_measurement = 101

[[record]]
molecule = "O=c1[nH]c(-c2ccc(S(=O)(=O)N3CCCC3)cc2)nc2sc3c(c12)CCCC3"
observed_measurement = 120

[[record]]
molecule = "CC(C)Oc1ccc(CNC(=O)C2=Cc3ccccc3OC2)cc1"
observed_measurement = 67

[[record]]
molecule = "CCOc1ccccc1NC(=O)CN1c2ccccc2S(=O)(=O)c2ccccc21"
observed_measurement = 37

[[record]]
molecule = "O=C(CN1c2ccccc2S(=O)(=O)c2ccccc21)Nc1ccccc1Cl"
observed_measurement = 57

[[record]]
molecule = "CCCCN1C(=O)c2[nH]nc(-c3ccccc3O)c2C1c1ccc(OCc2ccccc2)cc1 (stereo unspecified)"
observed_measurement = 43

[[record]]
molecule = "Cc1cccc(N2CCN(c3ncnc4onc(C)c34)CC2C)c1 (stereo unspecified)"
observed_measurement = 77

[[record]]
molecule = "Cc1ccc(-n2nnc(-c3nc(-c4cccs4)no3)c2N)c(C)c1"
observed_measurement = 101

[[record]]
molecule = "CCOc1ccccc1NC(=O)c1c(NC(=O)C(C)Oc2cccc(Cl)c2)sc2c1CCCCC2 (stereo unspecified)"
observed_measurement = 64

[[record]]
molecule = "Cc1ccc(CN2CCSc3ccc(C(=O)N4CCN(c5cccc(C)c5C)CC4)cc32)cc1"
observed_measurement = 27

[[record]]
molecule = "Cc1cccc(NC(=O)CSc2cn(CC(=O)N3CCOCC3)c3ccccc23)c1"
observed_measurement = 82

[[record]]
molecule = "Cc1ccc2ncc(C(=O)Nc3cccc(C(F)(F)F)c3)c(=O)n2c1"
observed_measurement = 122

[[record]]
molecule = "CCOc1ccc(S(=O)(=O)N2CCC(N3CCN(Cc4ccc(C)cc4)C(=O)C3=O)CC2)cc1"
observed_measurement = 77

[[record]]
molecule = "COc1ccc(CNC(=O)Cn2ncc3c(=O)oc4ccccc4c32)c(OC)c1"
observed_measurement = 89

[[record]]
molecule = "Cc1ccc(CN2CCSc3ccc(C(=O)N4CCN(c5cc(C)ccc5C)CC4)cc32)cc1"
observed_measurement = 25

[[record]]
molecule = "Cc1cccc(CNS(=O)(=O)c2ccc(-c3cnc(C4CC4)o3)cc2)c1"
observed_measurement = 52

[[record]]
molecule = "CC(C)OC(=O)c1cc2c(ccn2C)n1CCC#N"
observed_measurement = 96

[[record]]
molecule = "CCOc1ccc(CN2C(=O)c3ccccc3Sc3ccc(C(=O)NCCc4ccccc4)cc32)cc1"
observed_measurement = 58

[[record]]
molecule = "Cc1ccc(Cl)cc1NC(=O)Cn1c(=O)n(CCC(=O)N2CCc3ccccc3C2)c(=O)c2ccccc21"
observed_measurement = 102

[[record]]
molecule = "O=C(Nc1ccccc1C(F)(F)F)N1CCN(c2ccc3nnc(-c4ccc(F)cc4)n3n2)CC1"
observed_measurement = 58

[[record]]
molecule = "Cc1ccc(CN2CCSc3ccc(C(=O)N4CCN(c5ccc(Cl)cc5)CC4)cc32)cc1"
observed_measurement = 72

[[record]]
molecule = "CCNC(=O)c1c(NC(=O)COc2ccc(F)cc2)sc2c1CCCC2"
observed_measurement = 59

[[record]]
molecule = "CCOC(=O)c1c(NC(=O)COc2c(C)cc(Cl)cc2Cl)sc2c1CCCC2"
observed_measurement = 53

[[record]]
molecule = "CCOc1ccccc1NC(=O)c1c(NC(=O)C(C)Oc2ccc(Cl)cc2)sc2c1CCCCC2 (stereo unspecified)"
observed_measurement = 83

[[record]]
molecule = "O=C(NC1CCCCC1)N1CCN(Cc2ccccc2)CC1"
observed_measurement = 69

[[record]]
molecule = "COc1cccc(C(=O)N(Cc2ccc(N(C)C)cc2)Cc2ccco2)c1"
observed_measurement = 69

[[record]]
molecule = "Cc1ccccc1NC(=O)c1c(NC(=O)C(C)Oc2cccc(Cl)c2)sc2c1CCCC2 (stereo unspecified)"
observed_measurement = 40

[[record]]
molecule = "O=C(COc1cccc(-n2cnnn2)c1)NC1CCCCC1"
observed_measurement = 83

[[record]]
molecule = "CCOc1ccccc1NC(=O)c1c2c(nc3ccccc13)C(=O)N(C1CCCCC1)C2"
observed_measurement = 55

[[record]]
molecule = "CCOC(=O)CSc1nc(-c2ccccc2)cc(C(F)(F)F)c1C#N"
observed_measurement = 70

[[record]]
molecule = "COc1ccc(N2CCN(C(=O)C3CCN(S(=O)(=O)Cc4ccccc4)CC3)CC2)cc1"
observed_measurement = 78

[[record]]
molecule = "CC(C)OCCCN1C(=O)c2[nH]nc(-c3ccccc3O)c2C1c1ccccc1F (stereo unspecified)"
observed_measurement = 46

[[record]]
molecule = "O=S(=O)(NCc1ccccc1)c1ccc(-c2cnc(C3CC3)o2)cc1"
observed_measurement = 71

[[record]]
molecule = "Cc1cc(C)nc(-n2nc(C)c3c2N(Cc2ccccc2C)C(=O)CC3c2ccc(Cl)cc2)n1 (stereo unspecified)"
observed_measurement = 72

[[record]]
molecule = "Cc1cc(C)c(NC(=O)CN2c3ccccc3S(=O)(=O)c3ccccc32)c(C)c1"
observed_measurement = 106

[[record]]
molecule = "COCCCN1C(=O)c2[nH]nc(-c3ccccc3O)c2C1c1ccc(OCc2ccccc2)cc1 (stereo unspecified)"
observed_measurement = 8

